Measured growth of individual entries
# Test system: EKVX NSCLC
# Measurement Protocol: NCI-60 one-dose screen, 48 h (100 = growth as untreated, 0 = no growth, -100 = all killed)
# Test Settings: 10 µM unless noted
This is part of a sample that, as a whole, favours compounds with a hit. Of some 83,000 tested, about 20% had one in any assay.
Please reply with the bare figure in % and do not write the unit itself.

Some molecules with known growth results, for comparison:
Compound String	growth / %
COc1cc(-c2nc3ccc(-c4nnc(SCC(=O)Nc5ccc(C(=O)/C=C/c6ccc(Cl)cc6)cc5)o4)cc3[nH]2)cc(OC)c1OC	99.5
O=C(N/N=C/c1ccc([N+](=O)[O-])s1)c1[nH]c2ccc(Br)cc2c1-c1ccccc1	9.91
Cc1nc(-c2cc3ccccc3oc2=O)ccc1C(=O)/C=C/c1ccc(Cl)c(Cl)c1	92.1
COc1cc(/C=C/C(=O)c2cc(OC)c(OC)c(OC)c2)ccc1Oc1nc(NCCO)nc(N2CCOCC2)n1	11.2
[Cl][Ru].c1ccc(-c2cccc(-c3ccccn3)n2)nc1.c1ccc(-c2ccnc3c2ccc2c(-c4ccccc4)ccnc23)cc1	62.7
CC(C)(O)c1cncc(-c2ccc3ncnc(N4CCc5cc(F)c(Cl)cc54)c3c2)c1	-2.39
O=c1/c(=C\c2ccc(-c3ccccc3)o2)sc2nc(-c3ccccc3)nn12	99.9
CCOC(=O)c1sc(N)c(C(=O)OCC)c1C	25.9
COc1ccc(-c2nc3ccc(-c4nnc(SCC(=O)Nc5ccc(C(=O)/C=C/c6ccc(Cl)cc6)cc5)o4)cc3[nH]2)cc1OC	91.9
CN(C)c1ccc(/C=C2\Cc3c(F)ccc(Br)c3C2=O)cc1	80.5

Which growth value belongs to `N#Cc1c(-c2ccc(Cl)cc2)nc(SCc2ccc([N+](=O)[O-])cc2)nc1N1CCNCC1` ?
51.9

Please report the recorded growth for `CO/N=C1\CCc2c(sc(NC(=O)c3cccc(C(F)(F)F)c3)c2C(N)=O)C1` .
30.7

For `C[C@@H](Nc1c(C#N)cnc2ccc(-c3cnc(N)nc3)cc12)c1ccccc1` , what is its reported growth?
4.11

Value lookup for growth; key = `[Cl][Ru].c1ccc(-c2cc(-c3ccccn3)nc(-c3ccccn3)c2)cc1.c1ccc(-c2ccnc3c2ccc2c(-c4ccccc4)ccnc23)cc1`
25.9

Could you share which growth value was measured for `COc1cc(OC)c(S(=O)(=O)NNC(=O)c2ccncc2)cc1C(=O)/C=C/c1ccc(C)cc1` ?
85.7

May I ask what growth has been recorded for `CCC/C=C/C=C/C(=O)N[C@@H](Cc1cc(F)cc(F)c1)C(=O)N[C@@H]1C(=O)N2CCC[C@H]2C(=O)N2CCCC[C@H]2C(=O)N[C@@H](C)C(=O)N2C[C@H](C)C[C@H]2C(=O)O[C@H]1C` ?
32.1

// returns reported growth for input `N#Cc1nc(-c2ccccc2)oc1S(N)(=O)=O`
97.5
